Listing of recorded concentration at which cell death / inhibition was observed in the MTT assay by entry.
Tested on: THP-1 cells
experiment.notes: MTT cell viability assay, Example 3
Format: cell-based, human
test.parameters: THP-1, approximately 48 hours, text of Example 3

Before answering, review these 2 worked examples.
{"columns": ["compound", "readout.value"],
 "data": [
  ["COc1cccc2c1C(=O)c1c(O)c3c(c(O)c1C2=O)C[C@@](O)(C(C)=O)C[C@@H]3O[C@H]1C[C@H](N)[C@H](O)[C@H](C)O1 [Daunorubicin, daunorubicin]", "≥ 10 µM"],
  ["CC(=O)O[C@@]12CO[C@@H]1C[C@H](O)[C@@]1(C)C(=O)[C@H](O)C3=C(C)[C@@H](OC(=O)[C@H](O)[C@@H](NC(=O)OC(C)(C)C)c4ccccc4)C[C@@](O)([C@@H](OC(=O)c4ccccc4)[C@H]21)C3(C)C [Docetaxel, docetaxel]", "46 µM"]
]}

Reading of concentration at which cell death / inhibition was observed in the MTT assay for Nc1ccn([C@@H]2O[C@H](CO)[C@@H](O)[C@@H]2O)c(=O)n1 [Ara-C, cytosine arabinoside] with THP-1 cells: ≥ 1 µM
